# polymerase ribozyme fitness (log ratio) annotations
B1: TPR 5TU (parent)
chain: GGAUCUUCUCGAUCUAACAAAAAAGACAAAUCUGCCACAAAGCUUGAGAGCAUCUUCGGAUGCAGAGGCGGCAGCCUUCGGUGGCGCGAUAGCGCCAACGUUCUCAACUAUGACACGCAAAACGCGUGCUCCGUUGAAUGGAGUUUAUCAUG

Variants of: B1
Measurement description: polymerase ribozyme fitness, log enrichment relative to wild type (log ratio); higher = more active; in vitro selection for triplet polymerase activity
Variants at the floor of the assay were thinned out.

Known results for variants:
Prompt: Answer with the recorded polymerase ribozyme fitness (log ratio) of U55A C85A A119U U134A A142C only.
Response: ≤ -4.2

Prompt: Answer with the recorded polymerase ribozyme fitness (log ratio) of A21C G68U only.
Response: ≤ -4.2

Prompt: Answer with the recorded polymerase ribozyme fitness (log ratio) of U9G A52G C72G C96U C105A A115G U127C G133U only.
Response: ≤ -4.2

Next:
Prompt: Answer with the recorded polymerase ribozyme fitness (log ratio) of A41C G80A C87A only.
Response: ≤ -4.2

Prompt: Answer with the recorded polymerase ribozyme fitness (log ratio) of A30U U45A G50C C79G G83C G126C only.
Response: ≤ -4.2

Prompt: Answer with the recorded polymerase ribozyme fitness (log ratio) of G58C U111G C116A A137C only.
Response: ≤ -4.2
